# study target: UniProt P21728
# Sequence (P21728 whole entry): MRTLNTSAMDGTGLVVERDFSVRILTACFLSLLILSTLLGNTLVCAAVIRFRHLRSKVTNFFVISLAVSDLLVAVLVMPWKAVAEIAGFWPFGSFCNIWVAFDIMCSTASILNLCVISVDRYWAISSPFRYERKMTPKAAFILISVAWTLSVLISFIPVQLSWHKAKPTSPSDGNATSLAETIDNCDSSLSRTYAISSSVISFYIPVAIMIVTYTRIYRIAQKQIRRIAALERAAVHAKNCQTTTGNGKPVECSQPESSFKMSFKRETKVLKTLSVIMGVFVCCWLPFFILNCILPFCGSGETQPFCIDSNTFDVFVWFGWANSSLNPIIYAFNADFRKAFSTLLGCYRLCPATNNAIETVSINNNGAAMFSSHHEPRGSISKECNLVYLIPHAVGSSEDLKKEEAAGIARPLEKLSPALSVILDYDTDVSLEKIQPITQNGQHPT
# protocol text: Displacement of [3H]SCH23390 from human dopamine D1 receptor expressed in HEK293 cell membranes by liquid scintillation counting based competition binding assay
Assign Ki to each entry below.
Write down the numeric answer in nM and omit the unit.

Please give measured Ki of the following entry: CN1CCc2cc(NCc3ccccc3)c(O)cc2C(c2ccccc2)C1 (racemic)
665

For the molecule Cc1ccccc1CNc1cc2c(cc1O)C(c1ccccc1)CN(C)CC2 (racemic) , give its reported Ki.
292

Report Ki, nothing else, for this molecule: CN1CCc2cc(O)c(N)cc2C(c2ccccc2)C1 (racemic)
351

// Input: CN1CCc2ccc(O)cc2C(c2ccccc2)C1 (racemic) . Output its Ki only.
207
